Each entry below lists one item and its recorded cAMP production (pmol/ml/µg prt) with saturated glucagon peptide, at 10 nM value.
SYSTEM TESTED: human glucagon receptor (human, UniProt P47871 26-477)
Sequence (P47871 26-477): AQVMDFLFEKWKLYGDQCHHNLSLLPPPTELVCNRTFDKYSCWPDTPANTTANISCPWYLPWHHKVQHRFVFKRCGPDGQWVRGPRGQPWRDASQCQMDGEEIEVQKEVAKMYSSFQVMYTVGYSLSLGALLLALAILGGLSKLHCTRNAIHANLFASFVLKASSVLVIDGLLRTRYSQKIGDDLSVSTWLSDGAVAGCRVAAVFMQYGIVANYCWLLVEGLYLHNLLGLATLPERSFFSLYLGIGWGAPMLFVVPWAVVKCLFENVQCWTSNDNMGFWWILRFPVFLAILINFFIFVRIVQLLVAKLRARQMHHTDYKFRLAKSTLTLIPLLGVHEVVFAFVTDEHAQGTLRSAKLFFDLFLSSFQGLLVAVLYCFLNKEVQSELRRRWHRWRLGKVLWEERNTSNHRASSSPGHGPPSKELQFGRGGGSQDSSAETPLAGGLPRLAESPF
METHOD DESCRIPTION: cell-based or functional assay
Where no end group is shown, it is not given here. [ ]: non-standard residue; d: D form. αMePhe(2,6-F2) = C[C@](N)(Cc1c(F)cccc1F)C(=O)O; αMePhe(2-F) = C[C@](N)(Cc1ccccc1F)C(=O)O; αMeBip(OMe) = alpha-methylated Bip(OMe); hhPhe = N[C@@H](CCCc1ccccc1)C(=O)O; αMeD = C[C@](N)(CC(=O)O)C(=O)O; αMeP = C[C@@]1(C(=O)O)CCCN1; αMeAPPA = not defined here; αMeS = C[C@](N)(CO)C(=O)O; Aib = CC(C)(N)C(=O)O
PROPERTY MEASURED: cAMP production (pmol/ml/µg prt) with saturated glucagon peptide, at 10 nM

| BINDER | OBSERVED VALUE |
| --- | --- |
| VVHSEGTFTSD[αMeBip(OMe)][hhPhe] (not fully specified (C-terminus); printed as VVHSEGTFTSD-(αMe-Bip(OMe))-(APPA)) [Seq. ID. No. 209] | 0 |
| VH[Aib]EGTFT[αMeS]D[αMeBip(OMe)][hhPhe]-NH2 [Seq. ID. No. 39] | 15 |
| VH[Aib]EGT[αMePhe(2-F)]TSD[αMeBip(OMe)][hhPhe]-NH2 [Seq. ID. No. 23] | 8 |
| VH[αMeP]EGT[αMePhe(2,6-F2)]TS[αMeD][αMeBip(OMe)][hhPhe] (not fully specified (C-terminus)) [Seq. ID. No. 80] | 0 |
| VHSEGT[αMePhe(2-F)]T[αMeS]D[αMeBip(OMe)][αMeAPPA] (not fully specified (C-terminus); printed as VHSEGT-(αMe-2FPhe)-T-(αMe-Ser)-D-(αMe-Bip(OMe))-(αMe-APPA); reading uncertain) [Seq. ID. No. 169] | 2 |
